# credit: ChEMBL document CHEMBL1201862

- Test system: OVCAR-4
- assay-overview: NCI tumour cell line growth inhibition, 48 h
Activity calls are given as the source filed them. Cut-off read from the data, not from the text of the source: active = GI50 up to about 1.1 µM and inactive = higher.
assay-readout: GI50

>>> value_observed("CC(C)C1=CC23CCC4C(C)(C(=O)O)CCCC4(C)C2CC1C1C(=O)N(c2ccccc2)C(=O)C13 (configuration not stated)")
"> 100 µM (inactive)"
>>> value_observed("Fc1ccc(/C=C2\\COCC3=C2NC(=S)NC3c2ccc(F)cc2)cc1 (configuration not stated)")
"18.1 µM (inactive)"
>>> value_observed("O=C(c1nc2ccc(Cl)cc2nc1O)C(O)c1ccc2c(c1)OCO2 (configuration not stated)")
"71.4 µM (inactive)"
>>> value_observed("COc1ccc(/N=N/c2c(C)c(C#N)c(=S)n(C3OC(CO)C(O)C(O)C3O)c2-c2ccccc2)cc1 (configuration not stated)")
"31.9 µM (inactive)"
>>> value_observed("C=C(C)[C@@H]1CC[C@]2(COC(C)=O)CC[C@]3(C)[C@H](CC[C@@H]4[C@@]5(C)CC[C@H](OC(C)=O)C(C)(C)[C@@H]5CC[C@]43C)[C@@H]12 [BETULIN DIACETATE]")
"> 50 µM (inactive)"
>>> value_observed("O=C(NCc1ccccc1)c1cc2cc(O)c(O)cc2cn1")
"25.5 µM (inactive)"

Each molecule below has a reported value. Please supply its GI50.
1. Oc1ccc(O)c(Cc2ccccc2)c1
2. Nc1ccccc1SC(/C=C/NNC1=NN=C(c2ccccc2)C(c2ccccc2)N1)c1ccccc1 (configuration not stated)
3. COc1ccc(Cn2c3ccc([N+](=O)[O-])cc3c(=O)n2Cc2ccccn2)cc1
4. O=C1C(=O)N(c2nccs2)C(=O)C(=O)C1c1nc2ccccc2s1
5. Cc1c(CNc2ccc(Cl)c(Cl)c2Cl)cnc2nc(N)nc(N)c12
6. CC(=O)c1c(O)cc(O)c(-c2c(C)cc(O)c3c2C(=O)c2cccc(O)c2C3=O)c1O

Reply:
1. 14.2 µM (inactive)
2. 14.9 µM (inactive)
3. 56.1 µM (inactive)
4. > 100 µM (inactive)
5. 14.5 µM (inactive)
6. 10.8 µM (inactive)

====

- Tested on: SN12C
- assay-overview: NCI tumour cell line growth inhibition, 48 h
Calls of active or inactive are those of the source. Cut-off read from the data, not from the text of the source: active = GI50 up to about 1.1 µM and inactive = higher.
For each entry below, report its GI50 value.

>>> value_observed("Cc1ccc2c(=O)cc(Cc3csc4ccccc34)[nH]c2n1")
"42.9 µM (inactive)"
>>> value_observed("Cc1ccc(NC(=O)/C(CC2Nc3c(ccc4c3C(=O)c3ccccc3C4=O)NC2O)=N/NC(C)(C)C)cc1 (stereo not given)")
"12.6 µM (inactive)"
>>> value_observed("CCNC1CC(n2cc(C)c(=O)[nH]c2=O)OC1CO (stereo not given)")
"> 100 µM (inactive)"
>>> value_observed("CCOc1ccc2c(ccc(/C=C/c3cc(C)c4cccnc4c3O)[n+]2C)c1")
"0.274 µM (active)"
>>> value_observed("O=C1C(=O)N(c2nccs2)C(=O)C(=O)C1c1nc2ccccc2s1")
"> 100 µM (inactive)"
>>> value_observed("CCc1ccccc1NC(=O)CCc1nnc(S)[nH]1")
"> 100 µM (inactive)"

Each molecule below has a reported value. Please supply its GI50.
1. CCOC(=O)C(NC(=O)c1ccccc1)(Nc1ccc(S(=O)(=O)Nc2ccc(OC)nn2)cc1)C(F)(F)F (stereo not given)
2. N#CC(C#N)=C(C(C#N)C#N)C(C#N)C#N
3. CN(C)CC1CCC/C(=C\c2ccc(OC(=O)/C=C/c3ccc(Cl)c(Cl)c3)cc2)C1=O (stereo not given)
4. Cn1c(COC(=O)NC2CCCCC2)c(COC(=O)NC2CCCCC2)c2ccc3cc(C=O)ccc3c21
5. CSc1scc2c1/C(=N/NC(N)=O)CCC2
6. Nc1ccccc1SC(/C=C/NNC1=NN=C(c2ccccc2)C(c2ccccc2)N1)c1ccccc1 (stereo not given)
7. O=C1Cc2c(-c3ccccc3)cc(-c3ccccc3)nc2-c2ccccc2N1

Reply:
1. > 100 µM (inactive)
2. > 100 µM (inactive)
3. 2.39 µM (inactive)
4. > 100 µM (inactive)
5. > 100 µM (inactive)
6. 17 µM (inactive)
7. 4.04 µM (inactive)

Each molecule below has a reported value. Please supply its GI50.
1. Cc1c(CNc2ccc(Cl)c(Cl)c2Cl)cnc2nc(N)nc(N)c12
2. OC[C@@H](O)[C@H]1NC[C@@H](O)[C@H]1O
3. CCOC(=O)CC(=O)N(c1ccc(OC)cc1)C(C(=O)OC)c1ccccc1 (stereo not given)
4. Cc1ccc(S(=O)(=O)n2cc(C#N)c(C#N)c2)cc1
5. Cc1ccc(C(=O)/C=C2/Nc3ccc([N+](=O)[O-])cc3N/C2=C/C(=O)c2ccc(C)cc2)cc1
6. S=C(N/N=C\c1ccccn1)N(Cc1ccccn1)Cc1ccccn1
7. [O-][N+]1=[N+]([O-])[C@@H](c2ccccc2)[C@H]1c1ccccc1
8. O=c1cc(-c2nc3ccccc3[nH]2)[nH]c2nc(-c3nc4ccccc4[nH]3)cc(-c3ccc(Cl)cc3)c12

Reply:
1. 1.36 µM (inactive)
2. > 100 µM (inactive)
3. > 100 µM (inactive)
4. 29.1 µM (inactive)
5. > 100 µM (inactive)
6. 0.34 µM (active)
7. 18 µM (inactive)
8. 16.5 µM (inactive)
